Molecular target: cGAS (Homo sapiens)
Sequence (Q8N884 whole entry): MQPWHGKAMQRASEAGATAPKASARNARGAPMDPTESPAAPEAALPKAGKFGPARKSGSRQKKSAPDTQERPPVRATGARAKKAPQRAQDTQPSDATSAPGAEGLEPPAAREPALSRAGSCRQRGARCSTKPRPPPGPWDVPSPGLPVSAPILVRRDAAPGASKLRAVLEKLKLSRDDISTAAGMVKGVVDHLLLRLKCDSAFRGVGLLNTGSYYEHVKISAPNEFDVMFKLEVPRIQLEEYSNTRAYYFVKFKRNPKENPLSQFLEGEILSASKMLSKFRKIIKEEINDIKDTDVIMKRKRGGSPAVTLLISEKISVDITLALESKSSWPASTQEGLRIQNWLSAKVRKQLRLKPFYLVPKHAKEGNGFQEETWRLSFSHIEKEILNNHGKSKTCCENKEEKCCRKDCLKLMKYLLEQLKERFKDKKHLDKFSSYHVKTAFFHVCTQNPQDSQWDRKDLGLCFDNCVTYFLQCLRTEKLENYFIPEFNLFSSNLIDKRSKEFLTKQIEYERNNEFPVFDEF
Assay: In vitro inhibition assay of cGAS activity (cGAMP production, RapidFire mass spectrometry)
Format: biochemical
Design: Insert cDNA encoding full-length of human cGAS; His6; made in house; host or cells: E. coli BL21(DE3)
Conditions: 10 nM recombinant human cGAS, 60 nM 75-bp dsDNA, 50 μM ATP, 50 μM GTP, 3 hrs
Description: Expression and Purification of Recombinant cGAS Protein: Insert cDNA encoding full-length of human cGAS into a modified bacterial expression vector containing an in-frame His6-tag. Induce the E. coli strain BL21(DE3) harboring the plasmid with 1 mM IPTG (Isopropyl β-D-1-thiogalactopyranoside) at 18° C. overnight. […]
Reported endpoint: IC50 (µM)

(P) COCC[C@@H]1CNC(=O)[C@@H](C)c2c1[nH]c1c(Cl)c(Cl)cc(NCCO)c21 (racemic)
(Q) C[C@@H]1C(=O)NCCc2[nH]c3c(Cl)c(Cl)cc(OCc4cocn4)c3c21 (single isomer, unassigned) [Example 179]
Qu. Given the listed items, does P or Q have the lesser reported IC50? Lab note: record the label of whichever item you select.
Ans. P
(P: 0.0262 µM, Q: 2.12 µM)

(P) CC1C(=O)NCCc2[nH]c3c(Cl)c(Cl)cc(OCCF)c3c21 (stereo not shown)
(Q) O=C1Cc2c([nH]c3c(Cl)c(Cl)cc(NC(=O)CO)c23)CCN1
(R) CC1C(=O)NCCc2[nH]c3c(Cl)c(Cl)cc(NCCC(F)F)c3c21 (stereo not shown)
Qu. Put the molecules in ascending order of IC50. Please list the labels in the order you were asked to rank them.
Ans. P, R, Q

----------
biological target: cGAS (Homo sapiens); assay: In vitro inhibition assay of cGAS activity (cGAMP production, RapidFire mass spectrometry); format: biochemical; set-up: Insert cDNA encoding full-length of human cGAS; His6; made in house; host or cells: E. coli BL21(DE3); conditions: 10 nM recombinant human cGAS, 60 nM 75-bp dsDNA, 50 μM ATP, 50 μM GTP, 3 hrs
Reported endpoint: IC50 (nM)

In [3]: df
Out[3]:
                                   molecule   u  obs_value
0  CC1C(=O)NCCc2[nH]c3c(Cl)c(Cl)cc(CCCO)c3c21 (stereo not shown)  nM       36.1
1  Cn1ncc(-c2cc(Cl)c(Cl)c3[nH]c4c(c23)CC(=O)NCC4CC(=O)O)n1 (racemic)  nM       5.12
2  CCOc1cc(Cl)c(Cl)c2[nH]c3c(c12)[C@H](C)C(=O)NCC3 (single isomer, unassigned) [Example 15B]  nM       1090
3  COCC[C@@H]1CNC(=O)Cc2c1[nH]c1c(Cl)c(Cl)cc(-c3cnn(C)n3)c21 (single isomer, unassigned)  nM       12.8
4  Cn1c2c(c3c(OCC#N)cc(Cl)c(Cl)c31)CC(=O)NC[C@H]2CC(C)(C)O (single isomer, unassigned) [Example 111]  nM       13.1

(A) CNC(=O)CC1CNC(=O)Cc2c1[nH]c1c(Cl)c(Cl)cc(-c3cnn(C)n3)c21 (stereo not shown)
(B) C[C@@H](O)CNc1cc(Cl)c(Cl)c2[nH]c3c(c12)[C@@H](C)C(=O)NCC3 (single isomer, unassigned) [Example 56]
Qu. When their IC50 values are compared, which is larger, A or B ? Give the label of your selection.
Ans. B
(B: 3560 nM, A: 15.6 nM)
